B1: TRIB1 (parent)
chain: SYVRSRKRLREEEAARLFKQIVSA

variants of: B1; assay: protein stability index of a GFP-peptide fusion (GPS, HEK-293T) (PSI 1-6); higher = more stable; settings: c terminus: a fixed tail appended;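 also: lentivirally expressed fusions sorted by FACS into six bins by GFP to DsRed ratio, PSI derived from sequencing read proportions per bin multiplied by bin number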
Provide the reported protein stability index of each item.
Answers are plain numbers.

Some solved cases for reference:
BIOPOLYMER SEQUENCE	protein stability index
SYVRSRKRLREEEAARLMKQIVSA [F18M]	3.34
SRVRSRKRLREEEAARLFKQIVSA [Y2R]	2.17
SYVRSVKRLREEEAARLFKQIVSA [R6V]	1.95
MYVRSRKRLREEEAARLFKQIVSA [S1M]	1.82
SYCRSRKRLREEEAARLFKQIVSA [V3C]	1.71
SYVRSRKRLREEQAARLFKQIVSA [E13Q]	2.5
SYVRSRKRLREEEAARLFMQIVSA [K19M]	2.43
SYVRSRKRLREEEIARLFKQIVSA [A14I]	2.4
SYVRSRKRLRENEAARLFKQIVSA [E12N]	2.61
SYVRPRKRLREEEAARLFKQIVSA [S5P]	2.27

Need protein stability index for each of these variants.
1. SYVRLRKRLREEEAARLFKQIVSA [S5L]
2. SYVRSRKRLREEEAARLFIQIVSA [K19I]

2.5
2.91

Need protein stability index for each of these variants.
1. SYVRSRKRLWEEEAARLFKQIVSA [R10W]
2. SYVRSRKRLREEEAARLFKQEVSA [I21E]
3. SYVRSRWRLREEEAARLFKQIVSA [K7W]
4. SYVRFRKRLREEEAARLFKQIVSA [S5F]

[2.12, 3.23, 1.62, 2.4]

Need protein stability index for each of these variants.
1. SYVRSRKRLREEEAARLFKQIVSR [A24R]
2. SYVRSRKRLREEETARLFKQIVSA [A14T]
3. SYVRSRKRLREEEAARLFKQMVSA [I21M]
4. SYVRSRKRLREEEAARLFKNIVSA [Q20N]
5. SYVRSRKRLREEEAARLFKQTVSA [I21T]
6. SYVRSRKRLREEEAARLFKQIVMA [S23M]
7. SYVRSRKRLRIEEAARLFKQIVSA [E11I]
8. SYVRSRKRLREEEAAILFKQIVSA [R16I]

2.01
2.83
2.47
2.64
3.48
2.87
1.4
1.37

Need protein stability index for each of these variants.
1. SYVRSRKRLREEEAAELFKQIVSA [R16E]
2. SYVRSRKRLREEEASRLFKQIVSA [A15S]
3. SYVRSRKRLREEEAARLFKQPVSA [I21P]

1. 2.87
2. 2.36
3. 3.76

Need protein stability index for each of these variants.
1. SYVRSRKRLREEENARLFKQIVSA [A14N]
2. SYVRSRKRLREEEAARLFKQIVSN [A24N]
3. SYVRSRKRLREEEAARLFHQIVSA [K19H]
4. SYVRSRKRLREEEAARLFKCIVSA [Q20C]
5. SYVRSRKRLREEEADRLFKQIVSA [A15D]
6. SYVRSRKNLREEEAARLFKQIVSA [R8N]
7. SYVRSRKRLREEEAARLFKQIVSW [A24W]

1.89
3.37
1.69
1.43
2.32
2.6
2

Need protein stability index for each of these variants.
1. SYVRSRKRLREEEAARLIKQIVSA [F18I]
2. SYVRSRERLREEEAARLFKQIVSA [K7E]
3. SYVRSRKRLREEEAARLLKQIVSA [F18L]
4. SYVRSRKRLREEEAARLFKQVVSA [I21V]
5. SYVRSRKRLRQEEAARLFKQIVSA [E11Q]
6. SYVRSRTRLREEEAARLFKQIVSA [K7T]
7. SYVRSRKRLREEGAARLFKQIVSA [E13G]
8. SYVLSRKRLREEEAARLFKQIVSA [R4L]

1. 2.06
2. 2.5
3. 1.52
4. 2.34
5. 1.9
6. 2.52
7. 3.21
8. 2.35

Need protein stability index for each of these variants.
1. SYVASRKRLREEEAARLFKQIVSA [R4A]
2. SYVRSRKRLREEEAARLFKQIWSA [V22W]
3. SYVRSRKRLREEEAVRLFKQIVSA [A15V]
4. SYVRSRKRLREEECARLFKQIVSA [A14C]
5. SYVRSRKRLRTEEAARLFKQIVSA [E11T]
6. SYVRSRKRLREEEAARLFKQIVWA [S23W]

1: 1.41; 2: 3.04; 3: 1.84; 4: 2.24; 5: 2.44; 6: 1.07

Need protein stability index for each of these variants.
1. SYVRSRKRLREEEAARLFKYIVSA [Q20Y]
2. SYLRSRKRLREEEAARLFKQIVSA [V3L]
3. SYVRSWKRLREEEAARLFKQIVSA [R6W]
4. SYVRSRKRLREEEAATLFKQIVSA [R16T]

1.13
2.08
1.97
2.57
